# ASSAY_NOTES: folding stability dG unfold from trypsin proteolysis; higher = more stable
Use 2 kcal/mol as the dividing line for folding stability dG unfold, with the line itself on the 1 (yes) side and lower values as 0 (no).

SEQUENCE_TEXT	CATEGORY_LABEL
SAGGSAGGSAGGEIEVKEGEVVLVRLPDGTLLLYDKNTRRLYRFRFKDGKLEVEELELPESAGGSAGGSAGG [r7_527_TrROS_Hall]	1 (yes)
SAGKVTVERDPSTNVVNVTVEVERERDVPPGAPVTETIIIPARVKFDEDGKLVEPISLDDILAAIRAAGSAG [r5_239_TrMRF]	0 (no)
SAGGSAGGSSVSVGVPSSYASVEVTVLKEEPGKGLVTVKVTTTVPGTGEVLTETVTIPRSELLSAGGSAGGS [r12_964_JUSTAS]	0 (no)
SAGSYKLVVKAKAPKGPARIRVFVRLPGGEEKPVAEAEVGSGEVADIEITFPSGKPIDPKNIRVEIVPPSAG [r5_287_TrMRF]	0 (no)
SAGGKKKLVEITIKVPPGMTVEELIAEIAKKLPPGAKIVKVEYDKETKEIKIIVYDEKTKKKIEIKFSAGGS [r16_250_TrROS_Hall]	0 (no)
SAGGSMIVIVEIKPDGTIKIKVRTKDGKEKTIEISKEELEKEETPEEIAEKLAKEFEKEGVEEIEISAGGSA [r2_249_TrROS_Hall]	1 (yes)
